Assay: melting temperature; fluorescence melt of hairpins on a sequencing array, two-state fit, raised by 9.35 °C to match UV melts
Details: sodium 0.088 M
assay metric: Tm (°C)
Numbers only, in °C.

* GCTTCGAAAGAAGC (((((....))))) | 66.8
* GTAGGGGGAAACCCTTGC (.(.(((....))).).) | 31.9
* GTACGCGGAAACGTGTAC ((((.((....)).)))) | 54.6
* GTACACCCGAAAGGGTAC (((..(((....)))))) | 33
* GATCAACGGTTTGATC ((((((....)))))) | 40.9
* GATCGGCCAACCGATC ((((((....)))))) | 55.8
* GCTCCGGCGAAAGCCAGC (((..(((....)))))) | 32.6
* GGTATTCGAAAGAAACC (((.(((....)))))) | 31.7

Give Tm for all sequences that follow.
1. GGGTTGCGAAAGCATCCC (((.(((....))).)))
2. GCTATCCCGAAAGGGAGC (((..(((....))))))
3. GCGACACGAAAGTGACGC (((.(((....))).)))

(A)
1. 59.1
2. 38.9
3. 68.5

###

Assay: melting temperature; fluorescence melt of hairpins on a sequencing array, two-state fit, raised by 9.35 °C to match UV melts
Settings: sodium 0.088 M
# Fulfilled = Tm below 50 °C (exclusive); Not fulfilled = Tm at/above 50 °C

A selection of reference data follows.
* CGAGTCGGAAACGAATCG (((.(((....))).))) | Not fulfilled
* GAGGACACGAAAGTGCTC (((..(((....)))))) | Fulfilled
* CGTCTCGGAAACGAACG (((.(((....)))))) | Fulfilled
* GACGCCGAAAGGCCCGTC ((((((....)))..))) | Fulfilled

Now, please, on to the next sequence.
(Q) Input GATCTATTAATAGATC ((((((....)))))) ; condition: Tm strictly below 50 °C. Does it hold?
(A) Fulfilled

###

Experiment: melting temperature; fluorescence melt of hairpins on a sequencing array, two-state fit, raised by 9.35 °C to match UV melts
Conditions: sodium 0.088 M
assay metric: Tm (°C)
One number for each entry, in °C.

The following sequences have reported results that may help.
• GTTCGAGGAAACCCGAAC (((((.(....).))))) = 47
• GTATCCGGAAACGGACAC ((.((((....)))).)) = 39
• GGAGTCGGAAACGATTCC (((.(((....))).))) = 50.3

Give Tm for all sequences that follow.
1. GCTCAGCGAAAGCCCAGC (((..((....))..)))
2. GAGGCCGAAAGGCTGCTC ((((((....)))..)))
3. GATCGGACCCCGATC ((((((...))))))

(A)
37.2
45.9
54.1

###

Test: melting temperature; fluorescence melt of hairpins on a sequencing array, two-state fit, raised by 9.35 °C to match UV melts
Conditions: sodium 0.088 M
assay metric: Tm
Respond with the figure and its unit, in that order.

* GATCTTATTAAAGATC ((((((....)))))) | 42.8 °C

Give Tm for all sequences that follow.
1. GAACCTGGAAACAAGTTC ((((.((....)).))))
2. GTCCGCCGAAAGGCGAC (((.(((....))))))

(A)
["26.8 °C", "52.5 °C"]

###

Assay: melting temperature; fluorescence melt of hairpins on a sequencing array, two-state fit, raised by 9.35 °C to match UV melts
Conditions: sodium 0.088 M
assay metric: Tm (°C)
Answers are plain numbers, in °C.

The following sequences have reported results that may help.
• GTGATTCGAAAGAAGCAC (((.(((....))).))) = 56.5
• GAACCCCCGAAAGGGTTC (((..(((....)))))) = 55
• GCATCAGGAAACCGATGC (((((.(....).))))) = 50
• GCGGAGCACCGC ((((....)))) = 61.6
• CGGTCGGAAACGAACCG ((((((....))).))) = 51.6
• GACGGCGGAAACGCCGCC (.(((((....))))).) = 54.9
• GGCGTAGGAAACTGCGTC (.((.((....)).)).) = 44.1
• GGCACAGGAAACCGTGCC (((((.(....).))))) = 56.8
• CGGGAACGGAAACGTCCG (((..(((....)))))) = 43.1
• GCGACCGAAAGGTGCCGC ((((((....)))..))) = 50.4

Give Tm for all sequences that follow.
1. GTCACCGGAAACGGTAAC ((.((((....)))).))
2. GATTGTGGAAACACAGTC ((.((((....)))).))

(A)
1: 38.4; 2: 42.6

###

Test: folding enthalpy; higher = less favourable; fluorescence melt of hairpins on a sequencing array, two-state fit
Settings: sodium 0.088 M
// label = 1 if folding enthalpy is not less than -30 kcal/mol, otherwise 0

A selection of reference data follows.
- CGCTCCGGAAACGGCGCG (((.(((....))).))): 0
- GCATCGCGAAAGCGGCGC ((..(((....)))..)): 1
- GTTTCGGGAAACCGGAAC (((.(((....))).))): 0
- GCACCTGGAAACAAGTGC ((((.((....)).)))): 1
- GGGGGTCGAAAGACGCCC (((.(((....))).))): 1

(Q) Record GCTCTGCCGAAAGGCAGC (((..(((....)))))) ; criterion: folding enthalpy no lower than -30 kcal/mol. Met?
(A) 1

###

For each of the sequences below, state its Tm.
Test: melting temperature; fluorescence melt of hairpins on a sequencing array, two-state fit, raised by 9.35 °C to match UV melts
Conditions: sodium 0.088 M
Answers are plain numbers, in °C.

The following sequences have reported results that may help.
• GGCGTCGAAAGACATGCC ((((((....)))..))) = 53
• GCCAGAGCGAAAGCTGGC (((..(((....)))))) = 60
• GAACGGCGAAAGCCATTC (((.(((....))).))) = 44.2

Give Tm for all sequences that follow.
1. GAACAAGGAAACTTGTCC (.(((((....))))).)
2. GGCCGCGAAAGCGTGGCC ((((((....)))..)))
3. GATCCAATCTTGGATC ((((((....))))))
4. GTAGTGGGAAACCACTAC (((((((....)))))))
5. GTGGATGGAAACATCCAC (((((((....)))))))

(A)
31.3
69.2
54.3
63.4
65.1

###

Assay: melting temperature; fluorescence melt of hairpins on a sequencing array, two-state fit, raised by 9.35 °C to match UV melts
Settings: sodium 0.088 M
// label = class 1 if Tm is not less than 50 °C, otherwise class 0

A selection of reference data follows.
• GCATTGCCGAAAGGCTGC (((..(((....)))))) = class 0
• GCGTTGGGACGC ((((....)))) = class 1
• GTGATGTCGAAAGACCAC (((..(((....)))))) = class 0
• GTTGCCGAAAGGCTTAAC ((((((....)))..))) = class 0
• GCCTGCGGAAACGTAGGC ((((.((....)).)))) = class 1

(Q) Record GATCCCCAAGGGGATC ((((((....)))))) ; criterion: Tm no lower than 50 °C. Met?
(A) class 1

(Q) Record CGAAGCGGAAACGCTCG (((.(((....)))))) ; criterion: Tm no lower than 50 °C. Met?
(A) class 1

(Q) Record GATCTCAGCCGAGATC ((((((....)))))) ; criterion: Tm no lower than 50 °C. Met?
(A) class 1

(Q) Record GCGATGCGAAAGCTTGGC ((.(.((....)).).)) ; criterion: Tm no lower than 50 °C. Met?
(A) class 0

(Q) Record GATCGTTCAGACGATC ((((((....)))))) ; criterion: Tm no lower than 50 °C. Met?
(A) class 1

(Q) Record GGATTGGGAAACTAATCC (((((.(....).))))) ; criterion: Tm no lower than 50 °C. Met?
(A) class 0

(Q) Record GCTCGTGGAAACATGGGC ((.(.((....)).).)) ; criterion: Tm no lower than 50 °C. Met?
(A) class 0

(Q) Record TTGTTGAAAAACAA (((((....))))) ; criterion: Tm no lower than 50 °C. Met?
(A) class 0

(Q) Record GTCTTCGAAAGAACAGAC ((((((....)))..))) ; criterion: Tm no lower than 50 °C. Met?
(A) class 0

(Q) Record GTGCCAGGAAACTGACAC (((.(((....))).))) ; criterion: Tm no lower than 50 °C. Met?
(A) class 0

(Q) Record GATCTAGACGTAGATC ((((((....)))))) ; criterion: Tm no lower than 50 °C. Met?
(A) class 0

(Q) Record GCATTGCGAAAGCGAGGC ((.(.((....)).).)) ; criterion: Tm no lower than 50 °C. Met?
(A) class 1

(Q) Record GGCGACGAAAGTCTCGCC ((((((....)))..))) ; criterion: Tm no lower than 50 °C. Met?
(A) class 1

(Q) Record GTCATCGAAAGATTAGAC ((((((....)))..))) ; criterion: Tm no lower than 50 °C. Met?
(A) class 0

(Q) Record GGCACGGGAAACCGTACC ((.((((....)))).)) ; criterion: Tm no lower than 50 °C. Met?
(A) class 0

(Q) Record GCGCACGAAAGTGACCGC ((((((....)))..))) ; criterion: Tm no lower than 50 °C. Met?
(A) class 0

(Q) Record GCTGCCGAAAGGCCGAGC ((((((....)))..))) ; criterion: Tm no lower than 50 °C. Met?
(A) class 0
